test: Stability in 50% diluted pooled rat serum assessed parent compound remaining at 1.5 mg measured after 24 hrs by HPLC analysis; type: ADME, cell-free; conditions: read-out: Stability
measuredMetric: remaining at 24 h (%)

[Q] Fill in: remaining at 24 h of "CC(C)C[C@H](N)C(=O)N[C@H](CC(C)C)C(=O)N[C@@H](CO)C(=O)NCC(=O)N[C@H](C(=O)N[C@H](CC(C)C)C(=O)NCC(=O)NCC(=O)O)C(C)C" is ___
[A] 65

[Q] Fill in: remaining at 24 h of "CC(C)C[C@H](N)C(=O)N[C@H](CC(C)C)C(=O)N[C@@H](CO)C(=O)NCC(=O)N[C@H](C(=O)N[C@H](CC(C)C)C(=O)NCC(=O)O)C(C)C" is ___
[A] 65

[Q] Fill in: remaining at 24 h of "CC(C)C[C@H](N)C(=O)N[C@H](CC(C)C)C(=O)N[C@@H](CO)C(=O)NCC(=O)N[C@H](C(=O)O)C(C)C" is ___
[A] 65
